Biological target: T1, Biotin-huCGRPaSA (human, not fully specified; biotin (position not given))
T1 construct: exact construct ('aSA') not explained; also called Biotin CGRPaSA; full-length (1-37) CGRP
T1 peptide: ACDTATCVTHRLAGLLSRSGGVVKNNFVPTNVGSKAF
Assay: ELISA, supernatant; relative to chimeric C245
# key: entry, value: Relative binding activity, %
measure: Relative binding activity, % (%)

INSERT INTO assay_data (binder, measure_unit, readout_value) VALUES
  ('hu27 (antibody, V domains shown, 1F5 HC-1/1A2 LC2-1) VH: QVQLVQSGAEVKKPGASVKVSCKASGYTFIDFNMHWVRQAPGQRLEWMGYIYPYNGDVVYNQNFTNRVTLTVDTSSSTAYMELSSLRSEDTAVYYCAREGLGGYWGQGTLVTVSS VL: DIVLTQSPASLAVSPGQRATITCKASQNIDYDGYAYLNWYQQKPGQPPKVLIYSVFNLESGVPARFSGSGSGTDFTLTINPVEANDTANYYCQQSNEFPYTFGQGTKLEIK', '%', 28),
  ('hu236 (antibody, V domains shown, 3C1 HC-4/3C1 LC-3) VH: QVQLVQSGAEVKKPGASVKVSCKASGYTFTGYTMNWVRQAPGQGLEWMGLINPYIGNTHYNQKFKDRVTFTVDRSSSTAYMELSRLRSDDTAVYYCARELDSGFDYWGQGTLVTVSS VL: DVVMTQSPDSLAVSLGERATINCRSSQNIVHSNGDTYLEWYQQKPGQPPKLLIYKVSNRFSGVPDRFSGSGSGTDFTLTISSLQAEDVAVYYCYQGSHVPWTFGQGTKLEIK', '%', 68),
  ('hu131 (antibody, V domains shown, 2B8 HC1-3/1A2 LC2-1) VH: QVQLVQSGAEVKKPGASVKVSCKASGYTFTDYNMHWVRQAPGQGLEWMGNIYPYNAGTVYNQKFNNRVTLTVDTSSSTAYMELSRLRSDDTAVYYCAREGLGGYWGQGTLVTVSS VL: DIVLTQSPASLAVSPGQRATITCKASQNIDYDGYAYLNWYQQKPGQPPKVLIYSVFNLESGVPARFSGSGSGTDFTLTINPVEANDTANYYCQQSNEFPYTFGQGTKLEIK', '%', 107),
  ('hu10 (antibody, V domains shown, 1B2 HC-1/2B8 LC2-2) VH: QVQLVQSGAEVKKPGASVKVSCKASGYTFTDYNMHWVRQAPGQGLEWMGYIFPYNGVAVYNRKFRSRVTLTIDTSSSTAYMELRSLRSDDTAVYYCAREGLGGYWGQGTLVTVSS VL: DVQLTQSPSFLSASVGDRVTITCQASQNIDGNTYMNWYQQKPGKAPKVLIYSIFNLESGVPSRFSGSGSGTEFTLTISSLQPEDFATYYCQQSNDYPYTFGQGTKLEIK', '%', 14),
  ('hu109 (antibody, V domains shown, 2B8 HC1-1/1F5 LC1-1) VH: QVQLVQSGAEVKKPGASVKVSCKASGYTFTDYNMHWVRQAPGQGLEWMGNIYPYNGGTVYNQKFNNRVTLTVDTSSSTAYMELSRLRSDDTAVYYCAREGLGGYWGQGTLVTVSS VL: EIVLTQSPATLSLSPGERATLSCKASQNIDFDGYAYMNWYQQKPGQAPRVLIYSVFNLESGIPARFSGSGSGTDFTLTISSLEPEDFAVYYCQQSHEVPYTFGQGTKLEIK', '%', 78),
  ('hu110 (antibody, V domains shown, 2B8 HC1-1/1F5 LC1-2) VH: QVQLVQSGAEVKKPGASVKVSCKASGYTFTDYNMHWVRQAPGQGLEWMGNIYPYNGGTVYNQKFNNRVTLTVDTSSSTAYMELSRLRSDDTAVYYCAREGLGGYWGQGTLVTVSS VL: EIVLTQSPATLSLSPGERATLSCKASQNIDFDGYAYMNWYQHKPGQAPRVLIYSVFNLESGIPARFSGSGSGTDFTLTISSLEPEDFAVYYCQQSHEVPYTFGQGTKLEIK', '%', 85),
  ('hu33 (antibody, V domains shown, 1F5 HC-1/1F5 LC1-3) VH: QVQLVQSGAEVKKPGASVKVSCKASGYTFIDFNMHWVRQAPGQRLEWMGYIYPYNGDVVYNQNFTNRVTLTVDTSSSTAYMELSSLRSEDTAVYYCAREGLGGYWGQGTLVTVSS VL: DIVLTQSPASLAVSPGQRATITCKASQNIDFDGYAYMNWYQQKPGQPPKVLIYSVFNLESGVPARFSGSGSGTDFTLTINPVEADDTANYYCQQSHEVPYTFGQGTKLEIK', '%', 18),
  ('hu163 (antibody, V domains shown, 3E5 HC-2/1F5 LC1-3) VH: QVQLVQSGAEVKKPGASVKVSCKASGYTFTDYNMHWVRQAPGQRLEWMGYISPYNGGTAYNQKFKFRVTLTVDTSSSTAYMELSSLRSEDTAVYYCAREGLGGYWGQGTLVTVSS VL: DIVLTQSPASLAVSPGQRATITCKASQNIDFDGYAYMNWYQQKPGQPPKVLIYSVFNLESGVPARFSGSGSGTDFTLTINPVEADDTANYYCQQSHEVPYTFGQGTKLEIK', '%', 78),
  ('hu101 (antibody, V domains shown, 2A2 HC-1/2B8 LC2-2) VH: QVQLVQSGAEVKKPGASVKVSCKASGYTFTDYNMHWVRQAPGQRLEWMGYVYPYNGGSAYNQKFKSRVTLTVDTSSSTAYMELSSLRSEDTAVYYCAREGLGGYWGQGTLVTVSS VL: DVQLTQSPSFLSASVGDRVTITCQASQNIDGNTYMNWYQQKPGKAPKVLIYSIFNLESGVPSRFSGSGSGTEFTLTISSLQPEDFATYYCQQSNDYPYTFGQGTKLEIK', '%', 48),
  ('hu24 (antibody, V domains shown, 1B2 HC-2/3E5 LC-1) VH: QVQLVQSGAEVKKPGASVKVSCKASGYTFTDYNMHWVRQAPGQRLEWMGYIFPYNGVAVYNRKFRSRVTLTVDTSSSTAYMELSSLRSEDTAVYYCAREGLGGYWGQGTLVTVSS VL: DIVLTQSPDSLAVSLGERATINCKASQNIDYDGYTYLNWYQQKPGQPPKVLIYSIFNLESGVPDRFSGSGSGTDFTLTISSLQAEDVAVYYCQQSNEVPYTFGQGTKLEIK', '%', 73);
